- assayed_target: AMPA receptors
- assay_info: AMPA receptor binding test (in vitro autoradiography method)
- test_settings: acute rat brain section including the striatum; [^11C] K-2; Fig. 1
measurement_label: Kd (nM)
Just the number in nM, nothing appended.

Identify the reported Kd for the following entry. CN(CCSc1cc(F)c(OCC(N)=O)c(F)c1)S(=O)(=O)c1ccccc1 [K-2]
47.9
